Hello, the source for this data is the MegaScale stability set (Tsuboyama et al. 2023), in case you need it.

Would you kindly list folding stability dG for each of these variants?
B1: EHEE_rd2_0191 (parent)
chain: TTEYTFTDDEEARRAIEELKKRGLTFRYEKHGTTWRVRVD

Variants of: B1
Protocol: folding stability dG (cDNA display proteolysis); higher = more stable
Assay setup: PBS, room temperature
One number for each entry, in kcal/mol.

R36I :: 3.33
T5Q :: 1.64
V39A :: 0.227
A15L :: 2.63
T2Y :: 2.41
A12M :: 2.33

Items follow; give folding stability dG for each.
1. E11D
2. E17I
3. R27Y
4. D9P
5. G23T
6. T5G
7. E29C
8. T34Y

1. 1.88
2. 2.01
3. 2.42
4. 2.3
5. -0.314
6. 0.086
7. 2.56
8. 2.05

Items follow; give folding stability dG for each.
1. R22S
2. A12S
3. W35R
4. R38G

1. 1.93
2. -0.064
3. -0.576
4. 0.594
